molecular target: human STING protein (140-379) (Homo sapiens, UniProt Q86WV6, H232R); construct: 6XHIS-SUMO-hSTING (140-379); test: Radiometric filtration binding competition assay (WT_FBA_HIS-SUMO-hSWAT); details: read-out: WT-hSWAT IC50
Sequence (Q86WV6 140-379 H232R): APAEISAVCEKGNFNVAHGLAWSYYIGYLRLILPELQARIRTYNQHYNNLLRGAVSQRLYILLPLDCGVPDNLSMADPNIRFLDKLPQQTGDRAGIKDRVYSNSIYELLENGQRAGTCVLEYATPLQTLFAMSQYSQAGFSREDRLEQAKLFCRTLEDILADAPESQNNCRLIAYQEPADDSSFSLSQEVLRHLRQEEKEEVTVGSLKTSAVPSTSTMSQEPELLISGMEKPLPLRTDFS

# compound, IC50
rows = [
    ("CSc1c(Cl)ccc2c(=O)c3ccc(N(C)CCS(=O)(=O)C(C)C)nc3n(CC(=O)O)c12", "20 to 100 µM"),
    ("CSc1c(C)ccc2c(=O)c3ccc(N(C)C)nc3n(CC(=O)O)c12", "20 to 100 µM"),
    ("CSc1c(Cl)ccc2c(=O)c3ccc(NC4CC(C#N)C4)nc3n(CC(=O)O)c12 (centres unmarked)", "< 20 µM"),
    ("CSc1c(Cl)ccc2c(=O)c3ccc(N(CC4CC4)CC4CC(F)(F)C4)nc3n(CC(=O)O)c12", "20 to 100 µM"),
    ("CN(C)c1c(Cl)ccc2c(=O)c3ccc(C(C)(C)C)nc3n(CC(=O)O)c12", "< 20 µM"),
    ("CSc1c(Cl)ccc2c(=O)c3ccc(N(CC4CC4)CC4COC4)nc3n(CC(=O)O)c12", "20 to 100 µM"),
    ("CCOc1c(Cl)ccc2c(=O)c3ccc(C)nc3n(CC(=O)O)c12", "100 to 300 µM"),
    ("CCOc1c(Cl)ccc2c(=O)c3ccc(N(C)CCn4ccnc4)nc3n(CC(=O)O)c12", "100 to 300 µM"),
]

----------
molecular target: hSTING-R232 (Homo sapiens, UniProt Q86WV6, H232R); construct: recombinant mouse or human STING protein (aa140-379); 6xHis-SUMO elsewhere) (cleaved yes); made in house; test: STING Differential Scanning Fluorimetry (DSF) assay, human; format: binding; conditions: human STING R232-WT, 5 μM protein

# molecule, WT_DSF_hSWAT Tm Shift (° C.)
data = [
    ("CCOc1c(Cl)ccc2c(=O)c3ccc(N(C)C)nc3n(CC(=O)O)c12", "C (“C” = 2-7° C.)"),
    ("CC(C)c1ccc2c(=O)c3ccc(Cl)c(N(C)C)c3n(CC(=O)O)c2n1", "D (“D” > 7° C.)"),
    ("CSc1c(Cl)ccc2c(=O)c3ccc(NCC4CC(F)(F)C4)nc3n(CC(=O)O)c12", "D (“D” > 7° C.)"),
    ("CSc1c(Cl)ccc2c(=O)c3ccc(N(C)C)nc3n(CC(=O)O)c12", "D (“D” > 7° C.)"),
    ("CO[C@H]1C[C@H](N(C)c2ccc3c(=O)c4ccc(C)c(N(C)C)c4n(CC(=O)O)c3n2)C1", "C (“C” = 2-7° C.)"),
    ("CN(C)c1c(Cl)ccc2c(=O)c3ccc(Nc4ccccc4)nc3n(CC(=O)O)c12", "D (“D” > 7° C.)"),
    ("CCOc1c(Cl)ccc2c(=O)c3ccc(N(C)CC4CCOCC4)nc3n(CC(=O)O)c12", "D (“D” > 7° C.)"),
    ("CCN(c1ccc2c(=O)c3ccc(Cl)c(SC)c3n(CC(=O)O)c2n1)C1COC1", "D (“D” > 7° C.)"),
    ("CCOc1c(Cl)ccc2c(=O)c3ccc(C(C)C)nc3n(CC(=O)O)c12", "D (“D” > 7° C.)"),
    ("CSc1c(C)ccc2c(=O)c3ccc(N(C)C)nc3n(CC(=O)O)c12", "D (“D” > 7° C.)"),
    ("CSc1c(Cl)ccc2c(=O)c3ccc(N(CC4CC4)C4CC(OC(F)F)C4)nc3n(CC(=O)O)c12 (stereo not shown)", "D (“D” > 7° C.)"),
    ("CO[C@H]1C[C@@H](N(C)c2nc3c(cc2Cl)c(=O)c2ccc(Cl)c(SC)c2n3CC(=O)O)C1", "D (“D” > 7° C.)"),
    ("CSc1c(Cl)ccc2c(=O)c3cc(Cl)c(N(C)CC4CCOCC4)nc3n(CC(=O)O)c12", "D (“D” > 7° C.)"),
    ("CSc1c(Cl)ccc2c(=O)c3ccc(N(C)CCS(C)(=O)=O)nc3n(CC(=O)O)c12", "D (“D” > 7° C.)"),
    ("CO[C@H]1C[C@H](N(C)c2ccc3c(=O)c4ccc(Cl)c(SC)c4n(CC(=O)O)c3n2)C1 (single isomer, unassigned)", "D (“D” > 7° C.)"),
    ("CSc1c(Cl)ccc2c(=O)c3ccc(N(C)CC4CCOCC4)nc3n(CC(=O)O)c12", "D (“D” > 7° C.)"),
    ("CN(C)c1ccc2c(=O)c3ccc(Cl)c(-c4ccccc4)c3n(CC(=O)O)c2n1", "D (“D” > 7° C.)"),
    ("CCOc1c(Cl)ccc2c(=O)c3ccc(N(C)CCn4ccnc4)nc3n(CC(=O)O)c12", "D (“D” > 7° C.)"),
]

The origin of these recorded values is patent US20220251079A1.
